# Target of assay: T1, Human EphA2 (Ecto) (Human, UniProt P29317 24-537)
# T1 construct: extracellular domain; in-house)
# T1 sequence (P29317 24-537): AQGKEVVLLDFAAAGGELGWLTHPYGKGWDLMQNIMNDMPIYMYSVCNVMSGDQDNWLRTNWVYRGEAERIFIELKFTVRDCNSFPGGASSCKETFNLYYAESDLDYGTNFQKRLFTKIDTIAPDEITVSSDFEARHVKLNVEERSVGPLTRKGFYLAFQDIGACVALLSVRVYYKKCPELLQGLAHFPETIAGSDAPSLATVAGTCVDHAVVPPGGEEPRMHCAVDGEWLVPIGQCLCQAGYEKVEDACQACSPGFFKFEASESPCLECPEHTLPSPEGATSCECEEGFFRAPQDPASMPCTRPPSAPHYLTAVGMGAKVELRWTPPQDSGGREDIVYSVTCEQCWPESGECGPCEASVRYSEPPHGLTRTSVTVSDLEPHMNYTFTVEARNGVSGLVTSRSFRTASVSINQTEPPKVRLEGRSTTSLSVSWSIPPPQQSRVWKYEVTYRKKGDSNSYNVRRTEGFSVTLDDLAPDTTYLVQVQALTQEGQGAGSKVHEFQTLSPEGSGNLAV
# Assay: FP competition; tracer Reference Compound C
Starred links: 1 amine or outer side, 2 acyl side, 3 side chain; linkers in the order of their positions; H or OH if unused. Positions of bridges follow the written chain, without caps; N, C: chain ends. No end group written: not given here. TATA = O=C(CC[*:1])N1CN(C(=O)CC[*:2])CN(C(=O)CC[*:3])C1
Reported endpoint: pKi
Conceptually, pKi converts a concentration in mol/L into minus its log10.

For the binder AXDCPLVNPLCLHPGWTCAXXXXXXK (N-terminal acetyl; X2 = HArg (homoarginine); X at 20-25 = Sar; K26 = D-Lys; 3 Cys thioether-linked to TATA scaffold) [Bicycle Compound Number 69 (TATA scaffold), Ac-A(HArg)DCPLVNPLCLHPGWTCA-Sar6-(D-K)] , what pKi is on record? 7.76

For the binder RPACPLVNPLCLHPGWTCA (linker 4-11-18 via TATA) [Bicycle Compound Number 70 (TATA scaffold), RPACPLVNPLCLHPGWTCA] , what pKi is on record? 8.00

For the binder ACPMVNPLCLHPGWTCA (linker 2-9-16 via TATA) [Bicycle Compound Number 97 (TATA scaffold), ACPMVNPLCLHPGWTCA] , what pKi is on record? 7.70

For the binder ACPLVNPLCLHPGWSCRGQ (linker 2-9-16 via TATA) [Bicycle Compound Number 87 (BCY6026) (TATA scaffold), ACPLVNPLCLHPGWSCRGQ] , what pKi is on record? 8.59

For the binder ACPLVNPLCLLDGWTCA (linker 2-9-16 via TATA (inferred)) [Bicycle Compound Number 58 (TATA scaffold), ACPLVNPLCLLDGWTCA] , what pKi is on record? 7.42

For the binder ACGFMGLVPCELYCADN (linker 2-10-14 via TATA (inferred)) [Bicycle Compound Number 51 (TATA scaffold), ACGFMGLVPCELYCADN] , what pKi is on record? 7.07

For the binder CPLVNPLCLHPGWTCLHGXXXXXXK (N-terminal acetyl; H17 = D-His; X at 19-24 = Sar; K25 = D-Lys; 3 Cys thioether-linked to TATA scaffold) [Bicycle Compound Number 78 (TATA scaffold), Ac-CPLVNPLCLHPGWTCL(D-His)G-Sar6-(D-K)] , what pKi is on record? 7.81

For the binder ACGFMGLEPCELFCA (linker 2-10-14 via TATA (inferred)) [Bicycle Compound Number 46 (TATA scaffold), ACGFMGLEPCELFCA] , what pKi is on record? 7.09

For the binder ACGFMGLEPCEMYCA (linker 2-10-14 via TATA (inferred)) [Bicycle Compound Number 50 (TATA scaffold), ACGFMGLEPCEMYCA] , what pKi is on record? 6.85

For the binder ACPLVNPLCLMTGWSCA (linker 2-9-16 via TATA (inferred)) [Bicycle Compound Number 61 (TATA scaffold), ACPLVNPLCLMTGWSCA] , what pKi is on record? 6.62

For the binder ACYVGKECAYMNVCA (linker 2-8-14 via TATA) [Bicycle Compound Number 29 (TATA scaffold), ACYVGKECAYMNVCA] , what pKi is on record? 6.68

For the binder CPLVNPLCLHPGWSCRGQXXXXXXK (N-terminal acetyl; X at 19-24 = Sar; K25 = D-Lys; 3 Cys thioether-linked to TATA scaffold) [Bicycle Compound Number 91 (BCY6042) (TATA scaffold), Ac-CPLVNPLCLHPGWSCRGQ-Sar6-(D-K)] , what pKi is on record? 8.22
